Experiment: yeast display, Sf9 membrane polyspecificity reagent, FACS + sequencing; frameworks hold sequencing errors
reported_property: polyreactivity (PSR sort gate)

polymer_sequence | result
QVQLVESGGGLVQAGGSLRLSCAASGLTFRVNDMGWYRQAPGKERELVATISSGGSTYYADSVKGRFTISRDNAKNTVYLQMNSLKPEDTAVYYCATNSEGQESNSYYVWMGYWGQGTQVTVSS | low polyreactivity
QVQLVESGGGIVQAGGSLRLSCAASGRVFTYYAMGWYRQAPGKERELVAAISSGGNTYYADSVKGRFTISRDNAKNTVFLQMNSLKPEDTAVYYCAAAGRPRYESNYWGQGTQVSVSS | high polyreactivity
QVQLVESGGGLVQAGGRLRLSCAAYGRTFSDYTMGWYRQAPGKERELVAAISRRGGTTYYADSVKGRFTISRDNAKNTVYLQMNSLKPEDTAVYYCAAKRYRPKYEYDYWGQGTQVTVSS | high polyreactivity
QVQLVESGGGLVQAGGSLRLSCAASGTTFDSYAMGWYRQAPGKERELVPAITSSASTNYADSVKGRFTISRDNAKNTVYLQMNSLKPEDNAVYYCYADAYRLSFGGFTSDDEFVYWGLGTQVTVSS | high polyreactivity
QVQLVESGGGLVQAGGSLRISCAASGFIFVRYAMGWYRQAPGKEREFVAVISRRGGSTHYADSVKGRFTISRDNAKNTVYLQMNSLKPEDTAVYYCAAVRRVYSQNDYWGQGSQVTVSS | high polyreactivity
QVQLVESGGGLVQAGGSLRLSCAASGSTFFDNAMGWYRQAPGKERELVAAITWNGGRTYYADSVKGRFTISRDNAKNTVYLQMNSLKPEDTAVYYCAKVPLYGRVIYRQPDVYSWGQGTQVTVSS | high polyreactivity
QVQLVESGGGLVQAGGSLRLRCAASGFTFRYYALAWYRPAPGKERELVAAISGSGGSTYYADSVKGRFTISRDNAKNTVYLQMNSLKPEDTAVYYCNALSARSRLQSDYWGQGTQVTVSS | high polyreactivity
QLQLVESGGGLVQAGGSLSLSCAASGSIFGYNAMGWYRPAPGKEREFVAAISFRGTSTYYADSVKGRFTISRDNAKNPVYLQMYSLKPEDTAVYYCAARSYDGDHYKHGYWGQGTQVTVSS | high polyreactivity
QVQLVESGAGLVQAGGSLRLSCAPSGRIFTPYAMGWYRQAPGKERELVAVIRDGSTYYADSVKGRFTISRDNSKNTVYLQMNSLKPEDTAVYYCRYDIWVWWSGAYDYWGQGTQVTVSS | low polyreactivity
QVQLVESGGGLVQAGGSLRLSCAASGSTFRPNAMGWYRQAPGTERELVAAITSGGSTYYADSVKGRFTISRDNAKNTVYLQMNRLKPEDTAVYYFNKDKFWSYPVQVNLDYWGQGTQVTVSS | low polyreactivity
QVQLVESGGGLVQAGGSLRLSCAASGSIFVAYEMGWYRPAPGKERELVAAIDSVGRTNYADSVKGRFTISRDNAKNTDYLQMNSLKRVDTSVYSCNADQYYSFYDPDDYWGQGTQVTVSS | low polyreactivity
